- System: SW 900
- Assay Notes: relative viability (nuclei count vs DMSO), 5 days (fraction); higher = more cells survive
- Experimental Parameters: first compound 2.53 µM
Define the label as true when relative viability is strictly less than 0.6 and as false in all remaining cases.

Field: example entries. Status: answers known.
• C=C1C(=O)O[C@@H](CCCCCCCC)[C@@H]1C(=O)O [C-75] + CC(=O)Nc1cccc(-n2c(=O)n(C3CC3)c(=O)c3c(Nc4ccc(I)cc4F)n(C)c(=O)c(C)c32)c1 [Trametinib] (partner 0.02 µM) = false
• Oc1nc(-c2ccc(C(F)(F)F)cc2)nc2c1CSCC2 [XAV939] + Nc1nc2[nH]cc(CCc3ccc(C(=O)N[C@@H](CCC(=O)O)C(=O)O)cc3)c2c(=O)[nH]1 [Pemetrexed] (partner 0.2 µM) = true
• C=C1C(=O)O[C@@H](CCCCCCCC)[C@@H]1C(=O)O [C-75] + O=C(c1cc(Cc2n[nH]c(=O)c3ccccc23)ccc1F)N1CCN(C(=O)C2CC2)CC1 [Olaparib] (partner 8 µM) = false

Now consider a different compound.
Problem: # check: relative viability < 0.6 for Oc1nc(-c2ccc(C(F)(F)F)cc2)nc2c1CSCC2 [XAV939] + Cc1cc(Nc2cc(N3CCN(C)CC3)nc(Sc3ccc(NC(=O)C4CC4)cc3)n2)n[nH]1 [Tozasertib] (partner 0.1 µM)
Solution: true
